Reported MIC by item:
system: E. faecalis; test: Minimum Inhibitory Concentration (MIC) assay, E. faecalis; type: cell-based, Enterococcus faecalis; conditions: Enterococcus faecalis, Table 4; compound administered alone; first figure of MIC/MBC; n.d. = activity not observed; read-out: MIC for E. faecalis
Entry rule: numbers only, all in µM.

The cases that follow already have their MIC on record.
Challenge: For the molecule shown here, O=C(O)C12C[C@@H](c3cccc(Br)c3)C1Sc1c(C3CC3)c(Cc3cccc4ccccc34)cc(=O)n12 (some centres unmarked) , give the reported MIC.
Response given: 4

Challenge: What measured MIC goes with CN(C)c1c(Cc2cccc3ccccc23)c(C2CC2)c2n(c1=O)C1(C(=O)O)C[C@@H](c3cccc(Cl)c3)C1S2 (some centres unmarked) ?
Response given: 3

Further cases:
Challenge: Could you share which MIC value was measured for CN(C)c1c(Cc2cccc3ccccc23)c(C2CC2)c2n(c1=O)C1(C(=O)O)C[C@@H](c3cccc(C(F)(F)F)c3)C1S2 (some centres unmarked) ?
Response given: 5

Challenge: Using the record for CCCCOc1ccc([C@@H]2CC3(C(=O)O)C2Sc2c(C4CC4)c(Cc4cccc5ccccc45)cc(=O)n23)cc1C (some centres unmarked) , report its MIC.
Response given: 3

Challenge: I am curious: what MIC value has been reported for O=C(O)C12C[C@@H](c3cccc(Cl)c3)C1Sc1c(C3CC3)c(Cc3cccc4ccccc34)cc(=O)n12 (some centres unmarked) ?
Response given: 5

====

test system: E. faecalis; test: Minimum Inhibitory Concentration (MIC) assay, E. faecalis; format: cell-based, Enterococcus faecalis; details: Enterococcus faecalis, 24 h, Table 3; compound alone, no antibiotic; 24 h, 37° C., OD600; first figure of MIC/MBC; n.d. = activity not observed at the concentrations tested; read-out: MIC for E. faecalis
measurement label: MIC (µM)
Output spec: scalar in µM, unitless text.

Some compounds with known MIC results, for comparison:
Challenge: Which MIC value is on record for Cc1cc(C)cc([C@@H]2CC3(C(=O)O)C2Sc2c(C4CC4)c(Cc4cccc5ccccc45)cc(=O)n23)c1 (stereo partly shown) ?
Response given: 5

Challenge: Fill in: MIC of CCCOc1ccc([C@@H]2CC3(C(=O)O)C2Sc2c(C4CC4)c(Cc4cccc5ccccc45)cc(=O)n23)cc1C (stereo partly shown) is ___
Response given: 4

Challenge: Could you share which MIC value was measured for COc1c(Cc2cccc3ccccc23)c(N(C)C)c(=O)n2c1SC1[C@H](c3cccc(C(F)(F)F)c3)CC12C(=O)O (stereo partly shown) ?
Response given: 25

Challenge: // returns reported MIC for input CCCCOc1ccc([C@@H]2CC3(C(=O)O)C2Sc2c(C4CC4)c(Cc4cccc5ccccc45)cc(=O)n23)cc1C (stereo partly shown)
Response given: 3

Challenge: Need MIC of O=C(O)C12C[C@@H](c3cccc(C(F)(F)F)c3)C1Sc1c(C3CC3)c(Cc3cccc4ccccc34)cc(=O)n12 (single isomer, unassigned) , thanks.
Response given: 10

Challenge: Entry O=C(O)C12C[C@H](c3cc(Cl)cc(Cl)c3)C1Sc1c(C3CC3)c(Cc3cccc4ccccc34)cc(=O)n12 (stereo partly shown) has what MIC?
Response given: 10

---
Challenge: Entry under review: O=C(O)C12C[C@@H](c3ccc(C(F)(F)F)cc3)C1Sc1c(C3CC3)c(Cc3cccc4ccccc34)cc(=O)n12 (stereo partly shown) . Reported MIC?
Response given: 5

Challenge: Requested read-out: MIC. Entry: O=C(O)C12C[C@@H](c3c(Cl)cccc3Cl)C1Sc1c(C3CC3)c(Cc3cccc4ccccc34)cc(=O)n12 (stereo partly shown)
Response given: 5

====

tested on: MRSA; assay: Minimum Inhibitory Concentration (MIC) assay, MRSA; type: cell-based, Methicillin-resistant Staphylococcus aureus; settings: Table 3; compound alone, no antibiotic; 24 h, 37° C., OD600; first figure of MIC/MBC; n.d. = activity not observed at the concentrations tested; read-out: MIC for MRSA
measurement label: MIC
Please make sure the unit comes right after the number.

Challenge: State the recorded MIC for this entry: O=C(O)C12C[C@@H](c3cccc(Cl)c3)C1Sc1c(C3CC3)c(Cc3cccc4ccccc34)cc(=O)n12 (stereo partly shown) [Example 10]
Response given: 5 µM

Challenge: Need MIC of O=C(O)C12C[C@@H](c3cccc(Cl)c3)C1Sc1c(C3CC3)c(Cc3cccc4ccccc34)cc(=O)n12 (stereo partly shown) [Example 11] , thanks.
Response given: 4 µM

Challenge: Any idea what its MIC is? The compound is O=C(O)C12C[C@@H](c3cccc(C(F)(F)F)c3)C1Sc1c(C3CC3)c(Cc3cccc4ccccc34)cc(=O)n12 (single isomer, unassigned) [Example 1]
Response given: 5 µM

---
Challenge: Quick check: MIC of O=C(O)C12C[C@@H](c3cccc(C(F)(F)F)c3)C1Sc1c(C3CC3)c(Cc3cccc4ccccc34)cc(=O)n12 (single isomer, unassigned) [Example 2] ?
Response given: 5 µM

====

tested on: E. faecalis; experiment: Minimum Inhibitory Concentration (MIC) assay, E. faecalis; format: cell-based, Enterococcus faecalis; settings: Enterococcus faecalis, Table 4; compound administered alone; first figure of MIC/MBC; n.d. = activity not observed; read-out: MIC for E. faecalis
The compounds listed here are annotated with their MIC.
Please respond with the number in µM and leave the unit unwritten.

// known answers, use as guide
Challenge: # query: MIC of entry O=C(O)C12C[C@@H](c3cccc(C(F)(F)F)c3)C1Sc1c(C3CC3)c(Cc3cccc4ccccc34)cc(=O)n12 (single isomer, unassigned)
Response given: 10

Challenge: Consider the compound O=C(O)C12C[C@@H](c3cc(Cl)cc(Cl)c3)C1Sc1c(C3CC3)c(Cc3cccc4ccccc34)cc(=O)n12 (stereo partly drawn) and give its measured MIC.
Response given: 3

Now let's try a different one.
Challenge: What does the data say about its MIC? Entry: Cc1cc(C)cc([C@@H]2CC3(C(=O)O)C2Sc2c(C4CC4)c(Cc4cccc5ccccc45)cc(=O)n23)c1 (stereo partly drawn)
Response given: 5

====

system: E. faecalis; assay: Minimum Inhibitory Concentration (MIC) assay, E. faecalis; type: cell-based, Enterococcus faecalis; details: Enterococcus faecalis, 24 h, Table 3; compound alone, no antibiotic; 24 h, 37° C., OD600; first figure of MIC/MBC; n.d. = activity not observed at the concentrations tested; read-out: MIC for E. faecalis
measurement label: MIC (µM)
Give the value in µM but do not write µM after it.

The following compounds have reported results that may help.
Challenge: What value of MIC on E. faecalis does CN(C)c1c(Cc2cccc3ccccc23)c(C2CC2)c2n(c1=O)C1(C(=O)O)C[C@@H](c3cccc(Cl)c3)C1S2 (some centres unmarked) have?
Response given: 3

Challenge: Record CN(C)c1c(Cc2cccc3ccccc23)c(C2CC2)c2n(c1=O)C1(C(=O)O)C[C@@H](c3cccc(C(F)(F)F)c3)C1S2 (some centres unmarked) : what is its MIC with E. faecalis?
Response given: 5

Challenge: Record lookup: for E. faecalis, what MIC belongs to O=C(O)C12C[C@@H](c3cccc(Br)c3)C1Sc1c(C3CC3)c(Cc3cccc4ccccc34)cc(=O)n12 (some centres unmarked) ?
Response given: 4

New cases:
Challenge: Return MIC measured with E. faecalis given this compound: O=C(O)C12C[C@@H](c3cccc(Cl)c3)C1Sc1c(C3CC3)c(Cc3cc4ccccc4s3)cc(=O)n12 (some centres unmarked)
Response given: 5

Challenge: Item O=C(O)C12C[C@@H](c3cc(Cl)cc(Cl)c3)C1Sc1c(C3CC3)c(Cc3cccc4ccccc34)cc(=O)n12 (some centres unmarked) with E. faecalis - MIC?
Response given: 3
